Hey, just so you know, these numbers are from patent US10781262B2.

test_system: human FolR1 (Homo sapiens, UniProt P15328)
Sequence (P15328 with tags, fused parts or gaps): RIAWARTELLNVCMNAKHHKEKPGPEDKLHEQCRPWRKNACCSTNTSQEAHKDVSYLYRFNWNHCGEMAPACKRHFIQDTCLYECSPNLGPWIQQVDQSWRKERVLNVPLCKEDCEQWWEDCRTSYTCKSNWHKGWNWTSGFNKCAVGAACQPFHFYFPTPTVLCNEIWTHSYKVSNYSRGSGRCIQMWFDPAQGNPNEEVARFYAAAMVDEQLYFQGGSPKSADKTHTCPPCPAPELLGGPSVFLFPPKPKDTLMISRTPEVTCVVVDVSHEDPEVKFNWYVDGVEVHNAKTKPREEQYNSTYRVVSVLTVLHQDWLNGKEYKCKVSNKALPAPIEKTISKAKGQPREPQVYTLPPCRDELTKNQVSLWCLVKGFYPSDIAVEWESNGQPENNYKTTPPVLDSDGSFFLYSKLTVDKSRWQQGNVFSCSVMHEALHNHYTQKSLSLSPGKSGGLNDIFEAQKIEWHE
Sequence (P01857 104-330 isoform P01857-1 Y232C/T249S/L251A/Y290V/H318R/Y319F partner): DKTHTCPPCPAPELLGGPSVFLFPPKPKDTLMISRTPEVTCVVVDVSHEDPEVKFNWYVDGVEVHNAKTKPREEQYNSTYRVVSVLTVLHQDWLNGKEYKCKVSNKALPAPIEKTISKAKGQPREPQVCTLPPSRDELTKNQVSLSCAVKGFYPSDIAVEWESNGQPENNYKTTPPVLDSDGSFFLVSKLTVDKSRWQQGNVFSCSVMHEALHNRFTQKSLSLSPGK
experimental_context: IgG injected for 60 seconds at 500 nM
parameter_measured: Binding to huFolR1

{"molecule": "36F2: anti-FolR1 clone, generic multi-framework library (Vk_3_20/VH_1_46); Fab and IgG (antibody, V domains shown) VH: QVQLVQSGAEVKKPGASVKVSCKASGYTFTSYYMHWVRQAPGQGLEWMGIINPSGGSTSYAQKFQGRVTMTHDTSTSTVYMELSSLRSEDTAVYYCARSFFTGFHLDYWGQGTLVTVSS VL: EIVLTQSPGTLSLSPGERATLSCRASQSVSSSYLAWYQQKPGQAPRLLIYGASSRATGIPDRFSGSGSGTDFTLTISRLEPEDFAVYYCQQYTNEHYYTFGQGTKVEIK", "parameter_measured": "Binding to huFolR1", "recorded_value": "+"}
{"molecule": "6B6: anti-FolR1 clone, generic multi-framework library (Vk3_20/VH1_46); Fab and IgG (antibody, V domains shown) VH: QVQLVQSGAEVKKPGASVKVSCKASGYTFTSYYMHWVRQAPGQGLEWMGIINPSGGSTSYAQKFQGRVTMTRDTSTSTVYMELSSLRSEDTAVYYCARSYVDMDYWGQGTLVTVSS VL: EIVLTQSPGTLSLSPGERATLSCRASQSVSSSYLAWYQQKPGQAPRLLIYGASSRATGIPDRFSGSGSGTDFTLTISRLEPEDFAVYYCQQDIWSPTFGQGTKVEIK", "parameter_measured": "Binding to huFolR1", "recorded_value": "+"}
